Data provenance: patent US20040138301A1

tested on: FSK-4 cells; test: Assay (IV): Glucose utilisation in FSK-4 cells; type: cell-based; conditions: FSK-4 cells, glucose utilisation, 24 hours incubation; read-out: FSK4 EC50
pEC50: −log10 of the molar value.
Answer Criterion not met if pEC50 is under 6, and Criterion met if it is 6 or more.

Smiles notation: Cc1c(Br)cc(C(C)(C)C)c(O)c1C(=O)Nc1ccc([N+](=O)[O-])cc1C(F)(F)F
Group label: Criterion met
--
Smiles notation: Cc1c(Cl)cc(C(C)(C)C)c(O)c1C(=O)Nc1ccc(C#N)c(C(F)(F)F)c1
Group label: Criterion met
--
Smiles notation: CCOP(=O)(OCC)/C(C#N)=C\c1cc(C(C)(C)C)c(O)c(C(C)(C)C)c1
Group label: Criterion not met
--
Smiles notation: O=C(Nc1ccc([N+](=O)[O-])cc1Cl)c1cccc(-c2ccccc2)c1O
Group label: Criterion not met
--
Smiles notation: Cc1c(Br)cc(C(C)(C)C)c(O)c1C(=O)Nc1cc(C(F)(F)F)ccc1Cl
Group label: Criterion not met
--
Smiles notation: CC(C)(C)c1cc(/C=C(\C#N)c2ccc(C(F)(F)F)cc2)cc(C(C)(C)C)c1O
Group label: Criterion not met
--
Smiles notation: CC(C)S(=O)(=O)/C(C#N)=C/c1cc(C(C)(C)C)c(O)c(C(C)(C)C)c1
Group label: Criterion met

----------
tested on: FSK-4 cells; assay: Assay (IV): Glucose utilisation in FSK-4 cells; format: cell-based; details: FSK-4 cells, glucose utilisation, 24 hours incubation; read-out: FSK4 EC50
Criterion: EC50 strictly under 0.8 µM. Met: T. Not met: F.

Compound: CC(C)(C)c1cc(/C=C(\C#N)S(=O)(=O)c2ccc(Cl)cc2Cl)cc(C(C)(C)C)c1O
Group label: T
--
Compound: CC(=C(C#N)C#N)c1cc(C(C)(C)C)c(O)c(C(C)(C)C)c1
Group label: T
--
Compound: N#CC(C#N)=Cc1c[nH]c2ccc(Cl)cc12
Group label: F
--
Compound: CC(C)(C)c1cc(/C=C(\C#N)c2ccccn2)cc(C(C)(C)C)c1O
Group label: F
--
Compound: Cc1c(Br)cc(C(C)(C)C)c(O)c1C(=O)Nc1c(Cl)cc([N+](=O)[O-])cc1Cl
Group label: T
--
Compound: Clc1ccc(-c2cc3ccccc3[nH]2)cc1
Group label: F
--
Compound: N#CC(C#N)=Cc1c(-c2ccc(Cl)cc2)[nH]c2ccccc12
Group label: F
--
Compound: Cc1c(Br)cc(C(C)(C)C)c(O)c1C(=O)Nc1c(Cl)cc(Cl)cc1C(F)(F)F
Group label: F
--
Compound: Cc1c(Br)cc(C(C)(C)C)c(O)c1C(=O)Nc1cc(C(F)(F)F)cc(C(F)(F)F)c1Br
Group label: T
--
Compound: Cc1c(Br)cc(C(C)(C)C)c(O)c1C(=O)Nc1ccccc1C(F)(F)F
Group label: F
--
Compound: CC(C)(C)c1cc(Br)cc(C(=O)Nc2ccc(C#N)cc2Cl)c1O
Group label: T
--
Compound: CC(C)(C)c1cc(/C=C(\C#N)S(=O)(=O)c2ccc(F)cc2)cc(C(C)(C)C)c1O
Group label: F
--
Compound: N#CC(C#N)=Cc1c[nH]c2ccc([N+](=O)[O-])cc12
Group label: F
--
Compound: CCOC(=O)/C(C#N)=C(/C)c1cc(C(C)(C)C)c(O)c(C(C)(C)C)c1
Group label: F
--
Compound: Cc1cc(C(C#N)c2ccc(Cl)cc2)c(Cl)cc1NC(=O)c1c(C)c(Br)cc(C(C)(C)C)c1O (stereo not drawn)
Group label: F
--
Compound: Cc1c(Br)cc(C(C)(C)C)c(O)c1C(=O)Nc1c(Cl)cc(Cl)cc1[N+](=O)[O-]
Group label: T
--
Compound: Cc1c(Br)cc(C(C)(C)C)c(O)c1C(=O)Nc1ccc(C(C)C)cc1C(F)(F)F
Group label: F
--
Compound: Cc1c(Cl)cc(C(C)(C)C)c(O)c1C(=O)Nc1cc(C(F)(F)F)cc(C(F)(F)F)c1
Group label: F
--
Compound: CC(C)(C)c1cc(/C=C(\C#N)c2ccc([N+](=O)[O-])cc2)cc(C(C)(C)C)c1O
Group label: F
--
Compound: CCCCCCS(=O)(=O)/C(C#N)=C/c1cc(C(C)(C)C)c(O)c(C(C)(C)C)c1
Group label: F
--
Compound: CC(C)(C)c1cc(/C=C(\C#N)S(C)(=O)=O)cc(C(C)(C)C)c1O
Group label: F
--
Compound: CC(C)(C)c1cc(/C=C(\C#N)S(=O)(=O)c2ccccc2)cc(C(C)(C)C)c1O
Group label: T
--
Compound: CC(C)(C)c1cc(C[P+](C2CCCCC2)(C2CCCCC2)C2CCCCC2)cc(C(C)(C)C)c1O
Group label: T
--
Compound: Cc1c(Br)cc(C(C)(C)C)c(O)c1C(=O)Nc1ccc([N+](=O)[O-])cc1Cl
Group label: T
--
Compound: CCOC(=O)C(=Cc1cc(C(C)(C)C)c(O)c(C(C)(C)C)c1)C(=O)OCC
Group label: F
--
Compound: CC(C)(C)c1cc([N+](=O)[O-])cc([N+](=O)[O-])c1O
Group label: F
--
Compound: CC(C)(C)c1cc(/C=C(\C#N)S(=O)(=O)c2cccc(Br)c2)cc(C(C)(C)C)c1O
Group label: T
--
Compound: CCCC[P+](CCCC)(CCCC)Cc1cc(C(C)(C)C)c(O)c(C(C)(C)C)c1.[Br-]
Group label: F
--
Compound: Cc1ccc(C(C)(C)C)c(O)c1C(=O)Nc1ccc([N+](=O)[O-])cc1C(F)(F)F
Group label: T
--
Compound: N#CC(C#N)=NNc1ccc(OC(F)(F)F)cc1 [Example 27, reference compound]
Group label: F
--
Compound: CCOC(=O)/C(C#N)=C/c1cc(C(C)(C)C)c(O)c(C(C)(C)C)c1
Group label: F
--
Compound: Cc1c(Br)cc(C(C)(C)C)c(O)c1C(=O)Nc1ccc(C#N)cc1Cl
Group label: T

----------
Some compounds, each annotated with its measured Emax.
test system: HEP-G2 cells; experiment: cells; settings: Homo sapiens, HepG2, read-out: HEP-G2 Emax (% of FCCP), HEP-G2 cells, maximal stimulation relative to FCCP

Smiles notation: Cc1c(Br)cc(C(C)(C)C)c(O)c1C(=O)Nc1c(Cl)cc(Cl)cc1C(F)(F)F
Emax [%]: 115
--
Smiles notation: Cc1c(Br)cc(C(C)(C)C)c(O)c1C(=O)Nc1c(Cl)cc(Cl)cc1[N+](=O)[O-]
Emax [%]: 90
--
Smiles notation: Cc1ccc(C(C)(C)C)c(O)c1C(=O)Nc1ccc([N+](=O)[O-])cc1C(F)(F)F
Emax [%]: 110
--
Smiles notation: CC(C)(C)c1cc(/C=C(\C#N)c2ccc(OC(F)(F)F)cc2)cc(C(C)(C)C)c1O
Emax [%]: 80
--
Smiles notation: CC(C)(C)c1cc(C[P+](C2CCCCC2)(C2CCCCC2)C2CCCCC2)cc(C(C)(C)C)c1O
Emax [%]: 70
--
Smiles notation: Cc1c(Br)cc(C(C)(C)C)c(O)c1C(=O)Nc1cc(C(F)(F)F)cc(C(F)(F)F)c1Br
Emax [%]: 90
--
Smiles notation: CC(=C(C#N)C#N)c1cc(C(C)(C)C)c(O)c(C(C)(C)C)c1
Emax [%]: 120
--
Smiles notation: Cc1ccc(C(C)C)c(C(=O)Nc2ccc([N+](=O)[O-])cc2Cl)c1O
Emax [%]: 103

----------
Below, each entry is listed alongside its reported EC50.
test system: HEP-G2 cells; assay: cells; conditions: Homo sapiens, HepG2, 3 h, read-out: HEP-G2 EC50, HEP-G2 cells, glucose utilisation, 3 hours incubation

Compound: CCOC(=O)C(=Cc1cc(C(C)(C)C)c(O)c(C(C)(C)C)c1)C(=O)OCC [Example 16]
Measured target: HEP-G2 cells
Unit name: nM
EC50: 11000
--
Compound: CC(C)(C)c1cc(/C=C(\C#N)c2ccncc2)cc(C(C)(C)C)c1O [Example 78]
Measured target: HEP-G2 cells
Unit name: nM
EC50: 2900
--
Compound: O=C(Nc1ccc([N+](=O)[O-])c(C(F)(F)F)c1)c1ccc(F)c(C(F)(F)F)c1 [Example 67]
Measured target: HEP-G2 cells
Unit name: nM
EC50: 5900
--
Compound: O=C(Nc1cc(C(F)(F)F)cc(C(F)(F)F)c1)c1cc(F)cc(C(F)(F)F)c1 [Example 64]
Measured target: HEP-G2 cells
Unit name: nM
EC50: 2600
--
Compound: CCc1cc(C#N)cc2c(C)c(C)[nH]c12 [Example 22, 2,3-Dimethyl-5-Cyano-7-Ethylindole]
Measured target: HEP-G2 cells
Unit name: nM
EC50: 91000
--
Compound: Clc1ccc(-c2cc3ccccc3[nH]2)cc1 [Example 20, 2-(4-Chlorophenyl)-Indole]
Measured target: HEP-G2 cells
Unit name: nM
EC50: 50000
--
Compound: CCOC(=O)/C(C#N)=C/c1cc(C(C)(C)C)c(O)c(C(C)(C)C)c1 [Example 15]
Measured target: HEP-G2 cells
Unit name: nM
EC50: 700
--
Compound: CC(C)(C)c1cc(C(=O)Nc2ccc([N+](=O)[O-])cc2Cl)c(O)c(C(C)(C)C)c1 [Example 40]
Measured target: HEP-G2 cells
Unit name: nM
EC50: 580
--
Compound: Cc1c(Cl)cc(C(C)(C)C)c(O)c1C(=O)Nc1ccc([N+](=O)[O-])cc1C(F)(F)F [Example 50]
Measured target: HEP-G2 cells
Unit name: nM
EC50: 30
--
Compound: N#CC(C#N)=Cc1c(-c2ccc(Cl)cc2)[nH]c2ccccc12 [Example 19]
Measured target: HEP-G2 cells
Unit name: nM
EC50: 7000
--
Compound: O=C(Nc1ccc([N+](=O)[O-])c(C(F)(F)F)c1)c1cc(F)cc(C(F)(F)F)c1 [Example 65]
Measured target: HEP-G2 cells
Unit name: nM
EC50: 5300
--
Compound: CCCCCCCC[P+](CCCCCCCC)(CCCCCCCC)Cc1cc(C(C)(C)C)c(O)c(C(C)(C)C)c1.[Br-] [Example 14]
Measured target: HEP-G2 cells
Unit name: nM
EC50: 1100
--
Compound: Cc1c(Cl)cc(C(C)(C)C)c(O)c1C(=O)Nc1cc(C(F)(F)F)cc(C(F)(F)F)c1 [Example 47]
Measured target: HEP-G2 cells
Unit name: nM
EC50: 700
--
Compound: CC(C)(C)c1cc(/C=N/C(C#N)=C(\N)C#N)cc(C(C)(C)C)c1O [Example 17]
Measured target: HEP-G2 cells
Unit name: nM
EC50: 6000
--
Compound: Cc1c(Br)cc(C(C)(C)C)c(O)c1C(=O)Nc1ccc([N+](=O)[O-])cc1Cl [Example 37]
Measured target: HEP-G2 cells
Unit name: nM
EC50: 35
--
Compound: Cc1c(Br)cc(C(C)(C)C)c(O)c1C(=O)Nc1cc(C(F)(F)F)ccc1C(F)(F)F [Example 61]
Measured target: HEP-G2 cells
Unit name: nM
EC50: 870
--
Compound: N#CC(C#N)=NNc1ccc(OC(F)(F)F)cc1 [Example 27, reference compound]
Measured target: HEP-G2 cells
Unit name: nM
EC50: 3000
--
Compound: Cc1ccc(C(C)C)c(O)c1C(=O)Nc1ccc([N+](=O)[O-])cc1Cl [Example 39]
Measured target: HEP-G2 cells
Unit name: nM
EC50: 6000
--
Compound: CC(C)(C)c1cc(/C=C(\C#N)c2ccc(OC(F)(F)F)cc2)cc(C(C)(C)C)c1O [Example 80]
Measured target: HEP-G2 cells
Unit name: nM
EC50: 8000
--
Compound: O=C(Nc1ccc([N+](=O)[O-])cc1Cl)c1cccc(-c2ccccc2)c1O [Example 44]
Measured target: HEP-G2 cells
Unit name: nM
EC50: 2000
--
Compound: Cc1c(Br)cc(C(C)(C)C)c(O)c1C(=O)Nc1cc(C(F)(F)F)ccc1Cl [Example 52]
Measured target: HEP-G2 cells
Unit name: nM
EC50: 2400
--
Compound: CC(=C(C#N)C#N)c1cc(C(C)(C)C)c(O)c(C(C)(C)C)c1 [Example 75]
Measured target: HEP-G2 cells
Unit name: nM
EC50: 360
--
Compound: Cc1c(Br)cc(C(C)(C)C)c(O)c1C(=O)Nc1c(Cl)cc([N+](=O)[O-])cc1Cl [Example 55]
Measured target: HEP-G2 cells
Unit name: nM
EC50: 360
--
Compound: Cc1c(Cl)cc(C(C)(C)C)c(O)c1C(=O)Nc1ccc(Cl)c(C(F)(F)F)c1 [Example 42]
Measured target: HEP-G2 cells
Unit name: nM
EC50: 3300
--
Compound: Cc1c(Br)cc(C(C)(C)C)c(O)c1C(=O)Nc1ccc(C#N)cc1Cl [Example 51]
Measured target: HEP-G2 cells
Unit name: nM
EC50: 400
--
Compound: CC(C)(C)c1cc(C[P+](C2CCCCC2)(C2CCCCC2)C2CCCCC2)cc(C(C)(C)C)c1O [Example 12]
Measured target: HEP-G2 cells
Unit name: nM
EC50: 1200
--
Compound: CC(C)c1cccc(C(=O)Nc2ccc([N+](=O)[O-])cc2Cl)c1O [Example 38]
Measured target: HEP-G2 cells
Unit name: nM
EC50: 3350
--
Compound: CCOC(=O)/C(=C/c1cc(C(C)(C)C)c(O)c(C(C)(C)C)c1)C(C)=O [Example 69]
Measured target: HEP-G2 cells
Unit name: nM
EC50: 100000
--
Compound: N#CC(C#N)=Cc1c[nH]c2ccc(Cl)cc12 [Example 30]
Measured target: HEP-G2 cells
Unit name: nM
EC50: 19500
--
Compound: COc1ccc(O)c([N+](=O)[O-])c1 [Example 2, 4-Methoxy-2-Nitrophenol]
Measured target: HEP-G2 cells
Unit name: nM
EC50: 290000
--
Compound: Cc1c(Br)cc(C(C)(C)C)c(O)c1C(=O)Nc1ccc(Cl)cc1Cl [Example 53]
Measured target: HEP-G2 cells
Unit name: nM
EC50: 4150
--
Compound: Cc1c(Br)cc(C(C)(C)C)c(O)c1C(=O)Nc1c(Cl)cc(Cl)cc1[N+](=O)[O-] [Example 54]
Measured target: HEP-G2 cells
Unit name: nM
EC50: 520
--
Compound: CC(=O)c1ccc(O)c([N+](=O)[O-])c1 [Example 3, 4-Hydroxy-3-Nitroacetophenone]
Measured target: HEP-G2 cells
Unit name: nM
EC50: 270000
